- Tested on: DLD-1 BRCA2−/− cells
- PROTOCOL DESCRIPTION: Homologous recombination synthetic lethal inhibition of proliferation, DLD-1 BRCA2-/- (Cell Titre Glo 3D)
- Assay type: cell-based
- MEASUREMENT CONTEXT: Homo sapiens, DLD-1, first proliferation column (c5); DLD-1 BRCA2-/-; read-out: POLQ PD Prolif Lumin (converted)
In plain terms, low IC50, meaning strictly below 500 nM, gives y, and everything else gives n.

Cc1ccnc(Cn2c(-c3ccc(CC(=O)N4CC5CC(C4)N5)cc3Cl)nc3c(OC4(C)CC4)ncnc32)c1	n
CC1(Oc2ncnc3c2nc(-c2ccc(OCCN4CCNCC4)cc2Cl)n3Cc2ccc(C#N)cn2)CC1	n
CNC(=O)COc1ccc(-c2nc3c(OC4(C)CC4)ncnc3n2CCc2ccccc2)c(Cl)c1	n
Cc1ccnc(Cn2c(-c3ccc(OCCS(C)(=O)=O)cc3Cl)nc3c(OC4(C)CC4)ncnc32)c1	y

Prompt: Dear colleague, could you confirm whether IC50 of `Cc1ccnc(Cn2c(-c3ccc(CN4CCC(O)CC4)cc3Cl)nc3c(OC4(C)CC4)ncnc32)c1` falls below 500 nM? Thanks.
Response: y

Prompt: Does this compound meet the criterion IC50 < 500 nM? `CC1(Oc2ncnc3c2nc(-c2ccc(CCCC(=O)O)cc2Cl)n3Cc2cccc(Cl)c2)CC1`
Response: n

Prompt: Does the reported IC50 of `Cc1ccnc(Cn2c(-c3ccc(N4CCCC4=O)cc3Cl)nc3c(OC4(C)CC4)ncnc32)c1` stay below 500 nM?
Response: y

Prompt: Does the reported IC50 of `Cc1cnc(Cn2c(-c3ccc(OCCN4CCNCC4)cc3Cl)nc3c(OC4(C)CC4)ncnc32)cc1Cl` stay below 500 nM?
Response: n
